- System: A498 renal
- MEASUREMENT_PROTOCOL: NCI tumour cell line growth inhibition, 48 h
OBSERVATION_TYPE: TGI

# MOLECULE, TGI
measured = [
    ("COc1cc2c(c3oc(-c4ccc(O)cc4)c(O)c(=O)c13)CCC(C)(C)O2", "0.538 µM"),
]

List TGI for every entry below, keeping the order given.
1. O=C(/C=C/c1ccccc1)NC1C=Nc2ccc([N+](=O)[O-])cc2NC1=O (stereo unspecified)
2. O=C(O)CN1CCSc2ccccc2CN(CC(=O)O)CCSc2ccccc2C1
3. Cn1cc(C2=C(c3ccsc3)C(=O)NC2=O)c2ccccc21
4. COC(=NC(C)C)NC(C)C
5. CC1=C(O)C(=O)C=C2C1=CC=C1[C@@]2(C)CC[C@@]2(C)C3C[C@@H](C)C(=O)[C@@H](O)[C@]3(C)CC[C@]12C (stereo partly specified)

**Result**
["> 100 µM", "> 100 µM", "> 25 µM", "> 100 µM", "12.4 µM"]

====

- Tested on: HL-60(TB) leukemia
- MEASUREMENT_PROTOCOL: NCI tumour cell line growth inhibition, 48 h
I'd appreciate it if you could supply TGI values for the items below.

Consider the following illustrative entries.
# COMPOUND, TGI
measured = [
    ("CC(=O)C1(O)CC2(c3ccccc3)C(=O)C1(c1ccccc1)C(c1ccccc1)=C2c1ccccc1 (centres undefined)", "> 100 µM"),
    ("CCCCCCCCCCCCCCCCOCC(COP(=O)(O)OCC1OC(n2cc(CC)c(=O)[nH]c2=O)CC1O)OC(=O)CCCCCCCCCCCCCCC (centres undefined)", "> 100 µM"),
    ("O=C1c2ccccc2C(=O)N1/N=C1/SC(=Nc2ccccc2)C(=Nc2ccccc2)N1c1ccccc1", "> 100 µM"),
    ("O=C1C2C3CC4C5C3C1C5C1(SCCS1)C42 (centres undefined)", "> 100 µM"),
    ("O=C1CSC(c2c[nH]c3ccccc23)N1c1cccc(Cl)c1 (centres undefined)", "> 100 µM"),
    ("C[N+]1(C)C2CC(OC(=O)C(CO)c3ccccc3)CC1C1OC12 (centres undefined)", "> 100 µM"),
    ("COc1ccc(C(=O)C(C(=O)CCC(=O)Nc2ccc(Cl)c(Cl)c2)c2ccc(OC)cc2)cc1 (centres undefined)", "> 100 µM"),
    ("O=C(CCC(=O)c1ccsc1)c1ccsc1", "> 100 µM"),
]

Record TGI for all entries; do not skip any.
1. N#CC(C(=O)CCCC(=O)Nc1ccccc1[N+](=O)[O-])c1c(Cl)cccc1Cl (centres undefined)
2. CC(NCc1c(O)ccc2c(-c3ccccc3)cc(=O)oc12)C(=O)O (centres undefined)
3. Cn1ncnc1[C@@H]1c2n[nH]c(=O)c3cc(F)cc(c23)N[C@H]1c1ccc(F)cc1
4. Nc1ccc(/C=C/c2ccc3ncccc3c2)cc1
5. COc1nc(NC2OC(COC(C)=O)C(OC(C)=O)C(OC(C)=O)C2OC(C)=O)c(N=CC=Nc2c(NC3OC(COC(C)=O)C(OC(C)=O)C(OC(C)=O)C3OC(C)=O)nc(OC)[nH]c2=O)c(=O)[nH]1 (centres undefined)
6. O=C1CSCC(=O)Nc2ccccc2N1
7. CC(=O)OCC1OC(N2C(=O)[C@@H](Oc3ccccc3)[C@H]2/C=C/c2ccccc2)C(OC(C)=O)C(OC(C)=O)C1OC(C)=O (some centres undefined)
8. O=C(c1ccc2ccccc2c1)C1(I)S(=O)(=O)OCCOS1(=O)=O

**Result**
> 100 µM
> 100 µM
> 100 µM
> 100 µM
> 100 µM
> 100 µM
> 100 µM
> 100 µM
